Each entry below carries its reported pIC50.
tested on: U-251; test: Cytotoxicity against human U251 cells incubated for 24 hrs by MTT assay; format: functional, cell-based; conditions: U-251, 24 h
pIC50: −log10 of the molar value.

COMPOUND | MEAS_VALUE
C=C(CC[C@@H](C(=O)O)[C@H]1CC[C@@]2(C)C3=C(CC[C@]12C)[C@@]1(C)CC[C@H](O)C(C)(C)[C@@H]1CC3)C(C)C [EBURICOIC ACID] | < 4.00
C=C(CC[C@@H](C)[C@H]1CC[C@H]2C3=C(C(=O)C[C@]12C)[C@@]1(C)CCC(=O)[C@@H](C)[C@@H]1C[C@@H]3O)[C@@H](C)C(=O)O | < 4.00

Moving on to the next compound.
Task: Return value of pIC50 for input Cn1nnc2c(C(N)=O)ncn2c1=O [TEMOZOLOMIDE] , no commentary.
Output: 4.44
